Where do the numbers come from? From patent US20230227540A1.

# target or test system: α-syn aggregate (human, UniProt P37840 1-140)
# assay text: Octet (BLI), α-syn aggregate (Example 2-6)
A collection of binders and their measured pKd
Please note pKd is a logarithmic value: minus log10 of concentration in mol/L. Answer with that number alone.

1E4 (antibody, V domains shown, Antibody purified from a mouse hybridoma, raised against the full-length (140 residues) α-Syn aggregate; Only the variable domains are tied to the clone as tested; also called mouse monoclonal anti α-Syn antibody 1E4) VH: EVQLQESGAELVRPGTSVKVSCKASGYAFTNYLIEWVKQRPGQGLEWIGVINPGSGGTNYNEKFKGKATLTADKSSSTAYMQLSSLTSDDSAVYFCASGNYDTYWGQGTLVTVSA VL: DIVMTQSPLSLPVSLGDQASISCRSSQSLVHSNGNTYLHWYLQKPGQSPKLLIYKVSNRFSGVPDRFSGSGSGTDFTLKISRVEAEDLGVYFCSQSTHVPRTFGGGTKLEIK :: 9.74

// field: pKd; key: AE8 (scFv, V domains shown, Clone from a human scFv phage library; also called ScFV anti α-Syn antibody AE8) VH: EVQLLESGGGLVQPGGSLRLSCAASGFTFSNYAMSWVRQAPGKGLEWVSAISSGGGNIYYADSVKGRFTISRDNSKNTLYLQMNSLRAEDTAVYYCARRPLYFDYWGQGTLVTVSS VL: QSVLTQPPSASGTPGQRVTISCSGSSSNIGNNSVNWYQQLPGTAPKLLIYANNNRPSGVPDRFSGSKSGTSASLAISGLRSEDEADYYCGSWDASLNGYVFGGGTKLTVLG ; value = 9.41

Reported pKd of 9B11 (antibody, V domains shown, Antibody purified from a mouse hybridoma, raised against the full-length α-Syn aggregate; Only the variable domains are tied to the clone as tested; also called mouse monoclonal anti α-Syn antibody 9B11) VH: EVQLQESGGGLVQPKGSLKLSCAASGFTFNTYAMNWVRQAPGKGLEWVARIRSKSNNYATYYADSVKDRFTISRDDSQSMLYLQMNNLKTEDTAMYYCVRQDFDYWGQGTTLTVSS VL: DIVMTQSPLSLPVSLGDQASISCRSSQSLVHSNGNTYLHWYLQKPGQSPKLLIYKVSNRFSGVPDRFSGSGSGTDFTLKISRVEAEDLGVYFCSQSTHVPLTFGAGTKLEQK : 10.74
